system: HCC1937; test: normalised response (% of control), CellTox Green; higher = less cell death (100 = DMSO, 0 = benzethonium chloride kill control); conditions: incubation time: 72 h
PARAMETER: normalised response (%)

INSERT INTO measurements (molecule, tgt, readout_value) VALUES
  ('CC(C)C[C@H](NC(=O)[C@H](Cc1ccccc1)NC(=O)c1cnccn1)B(O)O [Bortezomib] (100 nM)', 'HCC1937', -5.94),
  ('O=c1[nH]cc(F)c(=O)[nH]1 [Fluorouracil] (10000 nM)', 'HCC1937', 104),
  ('CCCC(CCC)C(=O)O [Valproic acid] (100000 nM)', 'HCC1937', 86.4);

###

test system: MDA-MB-468; test: drug sensitivity score (DSS), CellTox Green (DSS (AUC-based score)); higher = stronger drug effect (viability inhibition or cytotoxicity); extreme values may be limits of the assay; conditions: incubation time: 72 h
PARAMETER: drug sensitivity score

INSERT INTO assay_data (mol, parameter, readout_value) VALUES
  ('COC1=C2C[C@@H](C)C[C@H](OC)[C@H](O)[C@@H](C)/C=C(\C)[C@H](OC(N)=O)[C@@H](OC)/C=C\C=C(/C)C(=O)NC(=CC1=O)C2=O', 'drug sensitivity score', 25),
  ('C[C@@]1(C(=O)Nc2ccc(F)nc2)CCCN1c1nc(Nc2cc(C3CC3)n[nH]2)c2cccn2n1', 'drug sensitivity score', 18.2),
  ('COC(=O)C[C@](O)(CCCC(C)(C)O)C(=O)O[C@@H]1C(OC)=C[C@]23CCCN2CCc2cc4c(cc2[C@H]13)OCO4', 'drug sensitivity score', 3.61),
  ('COc1cccc2c1C(=O)c1c(O)c3c(c(O)c1C2=O)C[C@@](O)(C(C)=O)C[C@@H]3O[C@H]1C[C@H](N)[C@H](O)[C@H](C)O1', 'drug sensitivity score', 4.94);

###

tested on: HCC1143; test: normalised response (% of control), CellTiter-Glo; higher = more viable cells (100 = DMSO, 0 = benzethonium chloride kill control); details: incubation time: 72 h
Listing of recorded normalised response by entry.
PARAMETER: normalised response (%)

INSERT INTO measurements (compound, parameter, readout_value) VALUES
  ('Nc1nccc(-c2c(-c3ccc(F)cc3)ncn2C2CCCCC2)n1 (1 nM)', 'normalised response', 109),
  ('C[C@@]1(C(=O)Nc2ccc(F)nc2)CCCN1c1nc(Nc2cc(C3CC3)n[nH]2)c2cccn2n1 (1 nM)', 'normalised response', 89),
  ('COc1c(C)cnc(Cn2cnc3c(Cl)nc(N)nc32)c1C [BIIB021] (1000 nM)', 'normalised response', 38.6),
  ('C#Cc1cccc(Nc2ncnc3cc(OC)c(OCCCCCCC(=O)NO)cc23)c1 [CUDC-101] (1000 nM)', 'normalised response', 48.9),
  ('Cn1cnc2c(F)c(Nc3ccc(Br)cc3F)c(C(=O)NOCCO)cc21 [MEK-162] (1 nM)', 'normalised response', 99.6),
  ('COC1=CC(c2cc3ccccc3[nH]2)=N/C1=C\c1[nH]c(C)cc1C [Obatoclax] (1 nM)', 'normalised response', 92.5);

###

tested on: Hs578T; assay: normalised response (% of control), CellTiter-Glo; higher = more viable cells (100 = DMSO, 0 = benzethonium chloride kill control); settings: incubation time: 72 h
Listing of recorded normalised response by entry.
PARAMETER: normalised response (%)

INSERT INTO results (compound, tgt, readout_value) VALUES
  ('FC(F)c1nc2ccccc2n1-c1nc(N2CCOCC2)nc(N2CCOCC2)n1 [ZSTK474] (1 nM)', 'Hs578T', 102),
  ('CC(=O)O[C@H]1C(=O)[C@@]2(C)[C@H]([C@H](OC(=O)c3ccccc3)[C@]3(O)C[C@H](OC(=O)[C@H](O)[C@@H](NC(=O)c4ccccc4)c4ccccc4)C(C)=C1C3(C)C)[C@]1(OC(C)=O)CO[C@@H]1C[C@@H]2O [Paclitaxel] (0.1 nM)', 'Hs578T', 100),
  ('COC1=CC(c2cc3ccccc3[nH]2)=N/C1=C\c1[nH]c(C)cc1C [Obatoclax] (1000 nM)', 'Hs578T', 91.7),
  ('COC(=O)C[C@](O)(CCCC(C)(C)O)C(=O)O[C@@H]1C(OC)=C[C@]23CCCN2CCc2cc4c(cc2[C@H]13)OCO4 [Omacetaxine] (10 nM)', 'Hs578T', 108),
  ('C[C@@H]1CCN(C(=O)CC#N)C[C@@H]1N(C)c1ncnc2[nH]ccc12 [Tofacitinib] (500 nM)', 'Hs578T', 99.8),
  ('Cc1cc(C(C)Nc2ccccc2)c2nc(N3CCOCC3)cc(=O)n2c1 (configuration not stated) [TGX-221] (1 nM)', 'Hs578T', 98.4),
  ('C[C@@H]1C=C2C(=O)O[C@@H]3CC[C@H](C1)[C@]23O [Galiellalactone] (50 nM)', 'Hs578T', 104);
